growth values, listed per item
# Tested on: SR leukemia
# protocol.notes: NCI-60 one-dose screen, 48 h (100 = growth as untreated, 0 = no growth, -100 = all killed)
# condition.set: 10 µM unless noted
Compounds without any hit were thinned out: in the full panel of roughly 83,000, 20% have a hit.
API: value field is a number in %; no unit string.

Oc1cc[c]([Hg][Cl])cc1 :: 38.2

Entry CCC1(O)CC(OC2CC(N(C)C)C(OC3CC4OC5CC(=O)C(C)OC5OC4C(C)O3)C(C)O2)c2c(cc3c(c2O)C(=O)c2c(O)ccc(O)c2C3=O)C1C(=O)OC (stereo unspecified) : growth on SR leukemia = -6.58

Entry CCC(=O)OC1CCn2c1nc1c2C(=O)C(C)=C(N2CC2)C1=O (stereo unspecified) : growth on SR leukemia = 1.48

Entry CCCCCCCCCCCC1CCCC(C)N1 (stereo unspecified) : growth on SR leukemia = -28

Entry NCCc1ccc(OCc2ccccc2)c(OCc2ccccc2)c1 : growth on SR leukemia = -27.5

Entry O=C1c2ccccc2C(=O)C(Cl)C1Cl (stereo unspecified) : growth on SR leukemia = 35.6

* * *

# Test system: SF-268 CNS
# protocol.notes: NCI-60 one-dose screen, 48 h
# condition.set: 10 µM unless noted
This is part of a sample that, as a whole, favours compounds with a hit. Of some 83,000 tested, about 20% had one in any assay. The source made the active and inactive calls. How the source made its calls: active means growth percent below 10; inactive means the rest.
Field 'call' accepts active, inactive

CCOC(=O)C(NC(=O)C(Cc1ccc(N(CCCl)CCCl)cc1)NC(C)=O)C(C)C (stereo not drawn) :: inactive
CN1CCN(c2ccc([N+](=O)[O-])c3no[n+]([O-])c23)CC1 :: active
CCCCCCCCCCCC1CCCC(C)N1 (stereo not drawn) :: inactive

Look up the recorded call for Cc1ccc(C(=O)OC(C(=O)O)C(OC(=O)c2ccc(C)cc2)C(=O)O)cc1 (stereo not drawn) (tested in a mixture with another compound) in this test.
inactive

Look up the recorded call for O=C1c2ccccc2C(=O)C(Cl)C1Cl (stereo not drawn) in this test.
inactive

Look up the recorded call for CC[C@@]1(O)C[C@H](OC2CC(N(C)C)C(O)C(C)O2)c2c(O)c3c(c(O)c2[C@H]1OC1CC(N(C)C)C(O)C(C)O1)C(=O)c1cccc(O)c1C3=O (stereo partly drawn) in this test.
active

Look up the recorded call for CC[C@@]1(O)C(=O)OCc2c1cc1n(c2=O)Cc2cc3ccccc3nc2-1 in this test.
active

Look up the recorded call for NCCc1ccc(OCc2ccccc2)c(OCc2ccccc2)c1 in this test.
inactive

* * *

# System: BT-549 breast
# protocol.notes: NCI-60 one-dose screen, 48 h (100 = growth as untreated, 0 = no growth, -100 = all killed)
# condition.set: 10 µM unless noted
Compounds without any hit were thinned out: in the full panel of roughly 83,000, 20% have a hit.
assay.readout: growth (%)
API: value field is a number in %; no unit string.

Take a look at these entries with their results.
CC[C@@]1(O)C(=O)OCc2c1cc1n(c2=O)Cc2cc3ccccc3nc2-1 :: -39.9
CC[n+]1c(-c2ccccc2)c2cc(N)ccc2c2ccc(N)cc21 :: -35.7

For record COc1ccc(OC)c(/C=C/[N+](=O)[O-])c1 the listed growth is -45.5
